target: OCT2 (SLC22A2) (Homo sapiens, UniProt O15244); experiment: Cellular uptake into OCT2-overexpressing HEK293 cells vs EV control cells (HPLC-MS/MS); conditions: uptake ratio ≥2 = notable transport
Sequence (O15244 whole entry): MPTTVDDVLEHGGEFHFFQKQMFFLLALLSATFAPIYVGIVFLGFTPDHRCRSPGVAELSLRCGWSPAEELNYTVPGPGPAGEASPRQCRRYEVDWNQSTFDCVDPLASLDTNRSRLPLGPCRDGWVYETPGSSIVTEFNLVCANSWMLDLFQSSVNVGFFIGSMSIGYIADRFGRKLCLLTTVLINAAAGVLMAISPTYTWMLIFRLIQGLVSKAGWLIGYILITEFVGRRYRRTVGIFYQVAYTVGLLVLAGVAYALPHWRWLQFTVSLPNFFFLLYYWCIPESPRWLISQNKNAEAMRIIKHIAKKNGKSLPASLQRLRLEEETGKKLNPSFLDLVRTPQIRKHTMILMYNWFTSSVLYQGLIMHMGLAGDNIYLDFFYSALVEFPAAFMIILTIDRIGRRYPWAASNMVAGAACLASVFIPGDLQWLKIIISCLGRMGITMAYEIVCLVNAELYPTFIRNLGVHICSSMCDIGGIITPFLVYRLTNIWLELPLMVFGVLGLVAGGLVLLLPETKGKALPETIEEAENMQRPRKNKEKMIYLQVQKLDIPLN
MEASUREMENT_KIND: substrate activity at OCT2 (in words)

1) NCCCCCCO [6-amino-1-hexanol]    notable transport
2) NCCCCCO [5-amino-1-pentanol]    notable transport

* * *

Collected uptake ratio OCT1 (transporter-overexpressing cells over EV control cells): mean (±SD, N) values appear next to each entry.
Biological target: OCT1 (SLC22A1) (Homo sapiens, UniProt O15245)
Sequence (O15245 1-554): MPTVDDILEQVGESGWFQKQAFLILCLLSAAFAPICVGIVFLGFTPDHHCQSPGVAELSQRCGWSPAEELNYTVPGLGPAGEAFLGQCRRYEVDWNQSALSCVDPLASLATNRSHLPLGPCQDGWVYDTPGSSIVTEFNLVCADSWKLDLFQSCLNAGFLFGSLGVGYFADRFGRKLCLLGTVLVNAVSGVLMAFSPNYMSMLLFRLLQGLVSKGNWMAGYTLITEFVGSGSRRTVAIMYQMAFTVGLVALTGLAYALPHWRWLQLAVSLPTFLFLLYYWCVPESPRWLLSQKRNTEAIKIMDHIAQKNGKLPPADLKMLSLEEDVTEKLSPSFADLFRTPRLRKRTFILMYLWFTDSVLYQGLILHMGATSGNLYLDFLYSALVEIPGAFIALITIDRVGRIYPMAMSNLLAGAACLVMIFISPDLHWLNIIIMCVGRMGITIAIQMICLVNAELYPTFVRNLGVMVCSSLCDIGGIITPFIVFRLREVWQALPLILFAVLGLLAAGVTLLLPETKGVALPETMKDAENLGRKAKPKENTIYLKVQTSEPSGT
Experiment: Cellular uptake into OCT1-overexpressing HEK293 cells vs EV control cells (HPLC-MS/MS)
Conditions: 2.5 μM substrate (§), 2 min, HEK293

Sample answers from the record:
1) CC[C@H](C)[C@H](N)CO [(S)-(+)-isoleucinol]    1.0 (0.1, 4)
2) CC(N)CCCC(C)(C)O (stereo not drawn)    11.3 (4.6, 3)
3) CCC(C)(C)N    1.0 (0.3, 3)
4) NCCCCO    1.1 (0.3, 3)
5) CC(C)(C)[C@H](N)CO    1.4 (0.4, 3)

GET /values?readout=uptake ratio OCT1 (transporter-overexpressing cells over EV control cells): mean (±SD, N)&system=OCT1 (SLC22A1) (Homo sapiens, UniProt O15245)&item= CCC[C@H](N)CO [(S)-(+)-2-amino-1-pentanol] 1.0 (0.3, 4)

* * *

target: UniProt Q96FL8; assay: Cellular uptake into MATE1-overexpressing HEK293 cells vs EV control cells (HPLC-MS/MS); settings: 2.5 μM substrate, 1 min, 30 mM NH4Cl preincubation, HEK293
Sequence (Q96FL8 whole entry): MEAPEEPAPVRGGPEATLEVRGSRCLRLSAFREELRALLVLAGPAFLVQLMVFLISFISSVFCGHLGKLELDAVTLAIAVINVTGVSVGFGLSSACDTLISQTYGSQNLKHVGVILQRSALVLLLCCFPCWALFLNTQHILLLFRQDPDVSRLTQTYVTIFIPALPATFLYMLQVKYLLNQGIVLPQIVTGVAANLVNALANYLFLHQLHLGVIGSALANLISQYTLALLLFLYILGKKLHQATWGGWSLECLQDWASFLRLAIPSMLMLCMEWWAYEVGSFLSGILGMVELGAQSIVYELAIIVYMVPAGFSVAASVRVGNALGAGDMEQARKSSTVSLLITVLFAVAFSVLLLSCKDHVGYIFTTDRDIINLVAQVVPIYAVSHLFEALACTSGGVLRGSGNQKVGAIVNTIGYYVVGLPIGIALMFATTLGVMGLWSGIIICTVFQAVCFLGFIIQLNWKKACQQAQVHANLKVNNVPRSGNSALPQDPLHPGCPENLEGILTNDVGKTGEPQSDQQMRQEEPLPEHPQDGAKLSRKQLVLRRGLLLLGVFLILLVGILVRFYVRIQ
Marks after values point to notes of the source that are not given here.
Reported uptake ratio MATE1 (transporter-overexpressing cells over EV control cells): mean (±SD, N) is given for each of the following compounds.

Completed entries (count: 5):
1. CCCCCCCN    1.0 (0.3, 4)
2. CCC[C@H](N)CO [(S)-(+)-2-amino-1-pentanol]    1.1 (0.1, 4)
3. CC[C@H](C)[C@H](N)CO [(S)-(+)-isoleucinol]    1.1 (0.2, 3)
4. CC(C)(C)N    1.3 (0.3, 3)
5. NCCCCO    1.0 (0.01, 3)

Consider the compound shown here: NCCCCNCCCN What is its recorded uptake ratio MATE1 (transporter-overexpressing cells over EV control cells): mean (±SD, N)? 1.0 (0.4, 3)

Given the entry CCC(C)(C)N , report its measured uptake ratio MATE1 (transporter-overexpressing cells over EV control cells): mean (±SD, N). 0.9 (0.2, 3)

Endpoint output: uptake ratio MATE1 (transporter-overexpressing cells over EV control cells): mean (±SD, N) of CCN(CC)CCO . Value? 1 (0.13, 3)

Requested field: uptake ratio MATE1 (transporter-overexpressing cells over EV control cells): mean (±SD, N). Item: CCCCN 1.0 (0.1, 4)

Recorded uptake ratio MATE1 (transporter-overexpressing cells over EV control cells): mean (±SD, N) of CC(N)CCCC(C)(C)O (stereo not shown) , please. 6.6 (1.3, 3) ^a

Form field: reported uptake ratio MATE1 (transporter-overexpressing cells over EV control cells): mean (±SD, N) of NCCO 1.2 (0.4, 4)

Please give the measured uptake ratio MATE1 (transporter-overexpressing cells over EV control cells): mean (±SD, N) for this compound: NCC(O)CN 1.1 (0.1, 3)

Reported uptake ratio MATE1 (transporter-overexpressing cells over EV control cells): mean (±SD, N) for CC(C)CN : what is it? 0.9 (0.2, 4)

* * *

Property: selectivity ratio at 1 min; scope: individual molecules
molecular target: MATE2-K (SLC47A2) (Homo sapiens); assay: in vitro; conditions: pH 7.4
Sequence (Q86VL8 1-566 isoform Q86VL8-3): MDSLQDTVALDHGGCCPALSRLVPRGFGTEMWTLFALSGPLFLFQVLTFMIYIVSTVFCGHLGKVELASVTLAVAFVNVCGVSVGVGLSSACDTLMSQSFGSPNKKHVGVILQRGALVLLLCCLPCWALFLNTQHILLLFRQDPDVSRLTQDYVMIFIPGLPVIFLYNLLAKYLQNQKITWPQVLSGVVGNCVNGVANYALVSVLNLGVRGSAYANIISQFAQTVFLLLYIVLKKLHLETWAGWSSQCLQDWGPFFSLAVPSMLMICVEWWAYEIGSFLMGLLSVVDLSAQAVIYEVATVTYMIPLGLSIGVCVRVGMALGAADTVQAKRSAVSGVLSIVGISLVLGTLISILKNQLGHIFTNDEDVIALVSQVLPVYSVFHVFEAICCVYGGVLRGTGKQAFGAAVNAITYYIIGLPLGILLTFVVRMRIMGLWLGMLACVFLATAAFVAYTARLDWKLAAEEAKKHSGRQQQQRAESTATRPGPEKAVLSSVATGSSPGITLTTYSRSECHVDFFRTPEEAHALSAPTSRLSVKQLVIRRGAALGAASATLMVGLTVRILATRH
Just the number, please, no unit attached.

Solved entries:
1) CCC[C@@H](N)CO [(R)-(−)-2-amino-1-pentanol]    1.2
2) CC(C)[C@H](N)CO    1.5

Given C[C@@H](N)CCO [(R)-3-aminobutan-1-ol] , state its recorded selectivity ratio at 1 min. 1.4

Find the recorded selectivity ratio at 1 min belonging to CCCC[C@@H](N)CO [(R)-(−)-2-amino-1-hexanol] and report it. 1.3

Which measured selectivity ratio at 1 min value corresponds to CC(C)(C)[C@@H](N)CO [(R)-(−)-tert-leucinol] ? 1.5

* * *

target: OCT3 (SLC22A3) (Homo sapiens, UniProt O75751); test: Cellular uptake into OCT3-overexpressing HEK293 cells vs EV control cells (HPLC-MS/MS); details: 10 μM substrate, 2 min, HEK293
Sequence (O75751 whole entry): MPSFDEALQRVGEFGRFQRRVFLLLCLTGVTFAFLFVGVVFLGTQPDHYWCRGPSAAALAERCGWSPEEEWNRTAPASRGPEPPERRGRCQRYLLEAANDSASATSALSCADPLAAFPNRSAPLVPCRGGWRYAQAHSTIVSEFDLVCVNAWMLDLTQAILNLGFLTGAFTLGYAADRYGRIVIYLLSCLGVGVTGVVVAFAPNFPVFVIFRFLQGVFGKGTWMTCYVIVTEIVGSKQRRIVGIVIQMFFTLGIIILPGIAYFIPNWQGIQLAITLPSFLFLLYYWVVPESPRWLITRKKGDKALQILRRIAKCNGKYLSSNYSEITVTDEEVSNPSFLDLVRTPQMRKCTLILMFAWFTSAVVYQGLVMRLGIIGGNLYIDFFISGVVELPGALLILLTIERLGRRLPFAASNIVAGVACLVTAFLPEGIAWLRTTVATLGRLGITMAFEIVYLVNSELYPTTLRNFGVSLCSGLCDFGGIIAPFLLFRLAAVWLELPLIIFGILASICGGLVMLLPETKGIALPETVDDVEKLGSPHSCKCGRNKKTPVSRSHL
Marks after values point to notes of the source that are not given here.
MEASUREMENT_KIND: uptake ratio OCT3 (transporter-overexpressing cells over EV control cells): mean (±SD, N)

Here is how some compounds turned out for uptake ratio OCT3 (transporter-overexpressing cells over EV control cells): mean (±SD, N).
1. CCN(CC)CC    0.8 (0.3, 4)
2. CC(C)(C)N    1.3 (0.5, 3)
3. CCCCCCN    0.6 (0.2, 4) ^a
4. CC(N)CN(CC(C)N)CC(C)N (centres unmarked)    - ^d
5. CCCCN    1.5 (1.0, 5)

OCT3 (SLC22A3) (Homo sapiens, UniProt O75751) / uptake ratio OCT3 (transporter-overexpressing cells over EV control cells): mean (±SD, N) / NCCO : value? 1.4 (0.5, 4)

What reported uptake ratio OCT3 (transporter-overexpressing cells over EV control cells): mean (±SD, N) corresponds to NCC(O)CN on OCT3 (SLC22A3) (Homo sapiens, UniProt O75751)? 1.6 (0.3, 3)

# query: uptake ratio OCT3 (transporter-overexpressing cells over EV control cells): mean (±SD, N) | item CC(C)N | system: OCT3 (SLC22A3) (Homo sapiens, UniProt O75751) 1.0 (0.2, 3)

* * *

biological target: OCT2 (SLC22A2) (Homo sapiens, UniProt O15244); assay: Cellular uptake into OCT2-overexpressing HEK293 cells vs EV control cells (HPLC-MS/MS); conditions: OCT2, net uptake, Michaelis–Menten
// reported K m (±SEM) per item

Here's what some known entries look like.
1) CCC[C@@H](N)CO [(R)-(−)-2-amino-1-pentanol]    198 (±67) μM
2) CCCC[C@H](N)CO [(S)-(+)-2-amino-1-hexanol]    39 (±12) μM
3) NCCCCCO    1260 (±452) μM
4) NCCCCO    1243 (±938) μM
5) CC(C)[C@@H](N)CO    329 (±190) μM

# get_value(readout='K m (±SEM)', item= NCCCCCCO ) 1176 (±273) μM

Tell me the measured K m (±SEM) of CC[C@H](C)[C@H](N)CO [(S)-(+)-isoleucinol] , please. 116 (±59) μM

Quick one: K m (±SEM) of CCCC[C@@H](N)CO [(R)-(−)-2-amino-1-hexanol] ? 59 (±11) μM

Recorded K m (±SEM) for CC(C)[C@H](N)CO , please? 362(±156) μM

What value of K m (±SEM) has been recorded for this entry: CCC[C@H](N)CO [(S)-(+)-2-amino-1-pentanol] 245 (±83) μM

Which K m (±SEM) value is on record for NCC(O)CN ? 65 (±91) μM

Look up K m (±SEM) for this compound: CC(N)CCCC(C)(C)O (stereo not drawn) 1089 (±213) μM

* * *

target: UniProt:Q96FL8; experiment: Cellular uptake into MATE1-overexpressing HEK293 cells vs EV control cells (HPLC-MS/MS); settings: uptake ratio ≥2 = notable transport
MEASUREMENT_KIND: substrate activity at MATE1 (in words)

1) NCCCCCCO    notable transport
2) NCCCCCO    notable transport

Cited source: paper PMC12340637
